- ASSAYED_TARGET: trypsin-activated recombinant human renin (Homo sapiens)
- Sequence (P00797 67-406): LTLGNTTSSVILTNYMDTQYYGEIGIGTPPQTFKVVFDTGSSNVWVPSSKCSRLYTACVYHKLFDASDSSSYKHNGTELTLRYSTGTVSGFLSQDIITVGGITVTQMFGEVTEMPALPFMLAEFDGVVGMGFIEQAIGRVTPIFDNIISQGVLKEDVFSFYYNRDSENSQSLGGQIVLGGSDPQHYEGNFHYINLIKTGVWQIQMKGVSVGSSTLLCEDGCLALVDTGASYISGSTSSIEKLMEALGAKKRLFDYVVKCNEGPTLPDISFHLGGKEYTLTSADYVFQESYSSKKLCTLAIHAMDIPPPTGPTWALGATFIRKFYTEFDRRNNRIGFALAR
- ASSAY_TEXT: Renin fluorescence assay (internally quenched peptide substrate)
- Type: biochemical
- CONDITION_PARAMETERS: compounds I*
OUTCOME_MEASURE: IC50

// worked examples, IC50 included
1) CNCC(CC12CCC(CC1)CC2)NC(=O)N1CCC[C@@H]([C@@H](OCCNC(=O)OC)c2cccc(Cl)c2)C1 (stereo partly drawn) [I*-129a]	> 50 nM
2) CNC[C@H](CC1CCCCC1)NC(=O)N1CCC[C@@H]([C@@H](OCCNC(=O)OC)c2cc(F)ccc2F)C1 [I*-63a]	< 1 nM
3) CNC[C@H](C[C@H]1CCC2(CC2)OC1)NC(=O)N1CCC[C@@H]([C@@H](OCCNC(=O)OC)c2cccc(Cl)c2)C1 [I*-158a]	< 10 nM
4) CNC[C@H](CC1CCCCC1)NC(=O)N1CCCC[C@@H]([C@@H](OCCNC(=O)OC)c2cccc(Cl)c2)C1 [I*-91a]	< 10 nM
5) CNC[C@H](C[C@H]1CCC(=O)N(C)C1)NC(=O)N1CCC[C@@H]([C@@H](OCCNC(=O)OC)c2cccc(Cl)c2)C1 [I*-131a]	> 50 nM

Problem: Report the value of IC50 obtained on trypsin-activated recombinant human renin (Homo sapiens) for CNC[C@H](CC1CCC(O)CC1)NC(=O)N1CCC[C@@H]([C@@H](OCCNC(=O)OC)c2cccc(Cl)c2)C1 (stereo partly drawn) [I*-102a] .
Solution: < 50 nM

Problem: Report the value of IC50 obtained on trypsin-activated recombinant human renin (Homo sapiens) for CNC[C@H](CC1CCCCC1)NC(=O)N1CCC[C@@H]([C@@H](OCC(C)NC(=O)OC)c2cccc(Cl)c2)C1 (stereo partly drawn) [I*-87a] .
Solution: < 50 nM

----------
- ASSAYED_TARGET: trypsin-activated recombinant human renin (Homo sapiens, UniProt P00797)
- ASSAY_TEXT: Renin fluorescence assay (internally quenched peptide substrate)
- Assay type: biochemical
- CONDITION_PARAMETERS: compounds I*
pIC50: −log10 of the molar value.
Items are presented alongside their recorded pIC50.

// worked examples, pIC50 included
1) CNC[C@H](C[C@H]1C[C@@H](C)O[C@@H](C)C1)NC(=O)N1CCC[C@@H]([C@@H](OCCNC(=O)OC)c2cccc(F)c2)C1 [I*-77a]	< 7.30
2) CNC[C@H](C[C@H]1CCC2(CC2)OC1)NC(=O)N1CCC[C@@H]([C@@H](OCCNC(=O)OC)c2cc(F)cc(F)c2)C1 [I*-160a]	> 9.00
3) CNC[C@@H](NC(=O)N1CCC[C@@H]([C@@H](OCCNC(=O)OC)c2cc(F)cc(F)c2)C1)[C@@H](O)C1CCCCC1 [I*-112a]	> 9.00
4) CNC[C@@H](NC(=O)N1CCC[C@@H]([C@@H](OCCNC(=O)OC)c2cccc(F)c2)C1)[C@@H](O)C1CCCCC1 [I*-48a]	> 8.00

We now examine a further compound.
Problem: # return recorded pIC50 for input CNC[C@H](C[C@H]1CCCCOC1)NC(=O)N1CCC[C@@H]([C@@H](OCCNC(=O)OC)c2cc(F)ccc2C)C1 [I*-79a]
Solution: > 8.00
